This listing pairs compounds with measured thermal shift delta Tm.
- Tested on: LOC_OS01G70970-cb002
- experiment.summary: thermal shift delta Tm vs DMSO control; higher = stronger stabilization (binding);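 further: purified Escherichia coli-expressed rice kinase domain construct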
- condition.context: 12.5 µM; protein concentration 2 µM
property.label: thermal shift delta Tm

>>> df
                                    compound          property_label    result
 0  CNC(=O)c1ccc(-c2cnc3ncc(Cc4ccc5ncccc5c4)n3n2)cc1F  thermal shift delta Tm  -0.18 °C
 1  Nc1cc(C(F)(F)F)c(-c2cc(N3CCOCC3)nc(N3CCOCC3)n2)cn1  thermal shift delta Tm   0.27 °C
 2  C=CC(=O)Nc1cc(Nc2nccc(-c3c[nH]c4ccccc34)n2)c(OC)cc1N(C)CCN(C)C  thermal shift delta Tm   0.59 °C
 3  CC(C)(C)c1cc(NC(=O)Nc2ccc(Oc3ccnc4[nH]c(=O)cnc34)cc2F)n(-c2ccccc2)n1  thermal shift delta Tm   0.73 °C
 4  O=C(NOC[C@H](O)CO)c1ccc(F)c(F)c1Nc1ccc(I)cc1F  thermal shift delta Tm   0.46 °C
 5  CC(C)[C@H](CO)Nc1nc(Nc2cccc(Cl)c2)c2ncn(C(C)C)c2n1  thermal shift delta Tm   3.68 °C
 6  Cc1[nH]nc2ccc(-c3cncc(OC[C@@H](N)Cc4ccccc4)c3)cc12  thermal shift delta Tm   0.36 °C
 7  CC(=O)Nc1cccc(-n2c(=O)n(C3CC3)c(=O)c3c(Nc4ccc(I)cc4F)n(C)c(=O)c(C)c32)c1  thermal shift delta Tm   0.12 °C
 8        Oc1ccc(Nc2nc(-c3ccc(Cl)cc3)cs2)cc1  thermal shift delta Tm   1.06 °C
 9  COc1cc2/c(=N/c3ccc(Br)cc3F)nc[nH]c2cc1OCC1CCN(C)CC1 [Vandetanib (ZD6474)]  thermal shift delta Tm   0.33 °C
10  Cc1ccccc1CN1C2=NCCN2C(=O)C2=C1CCN(Cc1ccccc1)C2  thermal shift delta Tm   0.36 °C
11  COc1ccc2[nH]cc(/C=C3\C(=O)Nc4ccc(NC(=O)CCN5CCCCC5)cc43)c2c1  thermal shift delta Tm   0.85 °C
12  CNC(=O)c1cc(COc2nnc(Nc3ccc(Cl)cc3)c3ccoc23)ccn1  thermal shift delta Tm   0.19 °C
13  CCc1cncnc1N1CCN(Cc2nc3ccc(C(F)(F)F)cc3[nH]2)CC1  thermal shift delta Tm   0.14 °C
14  CC(C)(C)S(=O)(=O)c1ccc2nccc(Nc3n[nH]c4ccc(F)cc34)c2c1  thermal shift delta Tm    0.6 °C
15  Clc1ccc(Nc2nnc(Cc3ccncc3)c3ccccc23)cc1 [Vatalanib (PTK787) 2HCl]  thermal shift delta Tm   0.27 °C
16  N#Cc1cccc(-c2c[nH]c3ncnc(N4CCOCC4)c23)c1  thermal shift delta Tm   0.07 °C
17  CNS(=O)(=O)C[C@H]1CC[C@H](N(C)c2[nH]cnc3nccc2-3)CC1  thermal shift delta Tm   1.16 °C

----------
- Tested on: LOC_OS07G06570-cb004
- experiment.summary: thermal shift delta Tm vs DMSO control; higher = stronger stabilization (binding)
- condition.context: 12.5 µM; protein concentration 2 µM
property.label: thermal shift delta Tm (°C)

>>> print(df.to_string())
                                  structure  number
0  CN(C)Cc1cccc(N/C(=C2\C(=O)Nc3cc(C(N)=O)ccc32)c2ccccc2)c1    1.03
1  Cc1cc(Nc2cc(N3CCN(C)CC3)nc(/C=C/c3ccccc3)n2)n[nH]1    1.23
2  CCc1cccc(CC)c1NC(=O)N1Cc2[nH]nc(NC(=O)c3ccc(N4CCN(C)CC4)cc3)c2C1    1.26
3  N#Cc1c(Oc2ccc(F)c(NC(=O)Cc3cccc(C(F)(F)F)c3)c2)ccc2nc(NC(=O)C3CC3)sc12    1.21
4  COc1cccc(-n2c(=O)[nH]c3cc(Cl)n(-c4ccc(-c5cccc(OC)c5O)cc4)c3c2=O)c1    1.02

----------
- Test system: LOC_OS01G60330-cb001
- experiment.summary: thermal shift delta Tm vs DMSO control; higher = stronger stabilization (binding)
- condition.context: 12.5 µM; protein concentration 2 µM
This listing pairs compounds with measured thermal shift delta Tm.
property.label: thermal shift delta Tm

                                   compound    result
0  Cc1ccc(F)c(NC(=O)Nc2ccc(-c3cccc4[nH]nc(N)c34)cc2)c1      4 °C
1  COc1cc(OC)cc(-c2cc3cnc(N)nc3nc2NC(=O)NC(C)(C)C)c1    0.3 °C
2  CC1Oc2cc(cnc2N)-c2c(nn(C)c2C#N)CN(C)C(=O)c2ccc(F)cc21 (stereo not given)    0.4 °C
3  CCn1c(C(=O)N(C2CC2)C2CC2)cc2c3c(ncn3C)c(Nc3cc(C)n(C)n3)nc21   1.11 °C
4  Cc1ccc([N+](=O)[O-])cc1S(=O)(=O)N(C)/N=C/c1cnc2ccc(Br)cn12  -0.03 °C

----------
- Test system: LOC_OS01G01410-cb001
- experiment.summary: thermal shift delta Tm vs DMSO control; higher = stronger stabilization (binding)
- condition.context: 12.5 µM; protein concentration 2 µM
Where a name gives a salt, the structure may show the parent alone.
property.label: thermal shift delta Tm (°C)

                                    compound  number
 0  COc1cc2ncnc(Oc3ccc(CC(=O)Nc4cnn(C(C)C)c4)cc3)c2cc1OC    0.27
 1  O=c1nc(N2CCOCC2)oc2c(-c3cccc4c3sc3ccccc34)cccc12    0.12
 2  Cc1nc2ccc(-n3ncc(C(=O)c4cc5ccccc5[nH]4)c3N)cc2[nH]1    0.79
 3         O=C1Nc2ccccc2/C1=C1/Nc2ccccc2C1=O     1.5
 4  CN1CCN(c2ccc(C(=O)Nc3n[nH]c4ccc(Cc5cc(F)cc(F)c5)cc34)c(NC3CCOCC3)c2)CC1 [Entrectinib (RXDX-101)]    2.21
 5  Cc1n[nH]c2ncc(C(=O)N3CCC[C@H]3c3ccc(Cl)cc3)cc12    0.63
 6  O=C(Nc1cnn2ccc(N3CCC[C@@H]3c3cc(F)ccc3F)nc12)N1CC[C@H](O)C1 [Larotrectinib (LOXO-101) sulfate]    -0.1
 7                O=C(O)CCC(=O)Nc1ccc(Br)cn1    0.12
 8  CCN(CC)CCCC(C)Nc1ccnc2cc(Cl)ccc12 (stereo not drawn) [Chloroquine Phosphate]    0.08
 9  C[C@@H]1CN(CC(=O)Nc2ccc3c(c2)Cc2cccc(-c4cc(=O)cc(N5CCOCC5)o4)c2S3)C[C@H](C)O1    0.15
10  Cc1csc(-c2nnc(Nc3ccc(Oc4ncccc4-c4ccnc(N)n4)cc3)c3ccccc23)c1    1.65
11  C[C@@H]1CN(C(=O)c2ccc(NC(=O)c3cc(O[C@H](C)c4c(Cl)ccc(F)c4Cl)c(N)nn3)cc2)C[C@H](C)N1    2.83
12  NC(=O)c1ncn([C@@H]2O[C@H](CO)[C@@H](O)[C@H]2O)c1N    0.45
13     O=C(NCc1cccc(O)c1)Nc1nc(-c2ccncc2)cs1       1
14  Cc1ccc(F)c(NC(=O)Nc2ccc(-c3cccc4[nH]nc(N)c34)cc2)c1       3
15  COC1(c2sc3c(N4CCOCC4)nc(-c4cnc(N)nc4)nc3c2C)COC1    1.79
16  Cc1cc(C(=O)NOCCO)c(Nc2ccc(I)cc2F)n(C)c1=O    0.56
17  N#Cc1cccc(-c2c[nH]c3ncnc(N4CCOCC4)c23)c1    0.72

----------
- System: LOC_OS01G02750-cb003
- experiment.summary: thermal shift delta Tm vs DMSO control; higher = stronger stabilization (binding)
- condition.context: 12.5 µM; protein concentration 2 µM
Classification field: met = thermal shift delta Tm at or over 1 °C; not met = thermal shift delta Tm under 1 °C.

>>> df
                                   molecule  discrete_label
0  C#Cc1cccc(Nc2ncnc3cc(OC)c(OCCCCCCC(=O)NO)cc23)c1         not met
1                 Cn1sc(=O)n(Cc2ccccc2)c1=O         not met
2  CC(C)(CCCCCC(O)CCCCCC(C)(C)C(=O)O)C(=O)O         not met
3  CO[C@@H](C)Cn1c(=O)n(C)c2cnc3ccc(-c4cncc(C(C)(C)O)c4)cc3c21             met
4  CC(C)(C)c1cc(NC(=O)Nc2ccc(Oc3ccnc4[nH]c(=O)cnc34)cc2F)n(-c2ccccc2)n1             met
5  C=CC(=O)Nc1ccc(CN2C(=O)N(c3cc(OC)cc(OC)c3)Cc3cnc(Nc4ccc(N5CCN(C)CC5)cc4)nc32)cc1             met
6  c1nc2c(NC3CCCCC3)nc(Nc3ccc(N4CCOCC4)cc3)nc2[nH]1         not met
7          O=C(/C=C/c1ccc2ccccc2n1)c1ccncc1         not met
8  O=c1cc(-c2ccccc2)oc2c(O)c(O)ccc12 [7,8-Dihydroxyflavone]             met
9  CC1=C(C(=O)Nc2cc3cn[nH]c3cc2F)C(c2ccc(C(F)(F)F)cc2)CC(=O)N1 (stereo not given)         not met

# credit: the supplement of paper PMC9694430
